Data credit: PubChem BioAssay AID1996

# particulars: buffer; pH 7.4; 200.0 µM
value_type: log10(solubility kinetic) (log10 of the value in µg/mL)
The figures below represent log10 of solubility kinetic, where solubility kinetic is stated in µg/mL.

Examples with their reported log10(solubility kinetic) follow.
{"compound": "O=C(Nc1cccc(C(=O)Nc2ccc(F)cc2F)c1)c1ccccc1", "log10(solubility kinetic)": -0.40}
{"compound": "CC1CCN(C(=O)COC(=O)CCC(=O)c2ccc(Cl)cc2)CC1", "log10(solubility kinetic)": 1.70}
{"compound": "C=CCNc1nc(C(=O)OCC(=O)c2ccc(F)cc2)cs1", "log10(solubility kinetic)": 1.05}
{"compound": "COc1cccc(CNCCc2c[nH]c3ccccc23)c1", "log10(solubility kinetic)": 1.55}

Attention now shifts to the item below.
QUERY: Looking for the measured log10(solubility kinetic) of CNC(=O)c1ccccc1NC(=O)C1CC(=O)N(C(C)C)C1 (stereo unspecified) , can you help?
RESULT: 1.65

###

# particulars: buffer; pH 7.4; 200.0 µM
Threshold check on solubility kinetic: at or above 30 µg/mL gives Fulfilled, strictly below gives Not fulfilled.

Worked examples follow.
{"compound": "CS(=O)(=O)N1CCN(c2ccc([N+](=O)[O-])c3cccnc23)CC1", "qualitative_label": "Not fulfilled"}
{"compound": "Cc1ccc(C(=O)NCCNC(=O)c2ccco2)cn1", "qualitative_label": "Fulfilled"}
{"compound": "O=[N+]([O-])c1c(NCCO)cc(N2CCCCCC2)c2nonc12", "qualitative_label": "Fulfilled"}
{"compound": "O=C1C2C3C=CC(CC3)C2C(=O)N1c1ccc(F)cc1 (stereo unspecified)", "qualitative_label": "Not fulfilled"}
{"compound": "Cc1[nH]c2ccccc2c1/C=C(\\C#N)C(=O)NC1CC1", "qualitative_label": "Not fulfilled"}

Now for a further compound.
QUERY: I'd appreciate it if you could say whether Cc1cccc(Oc2nc3c(c(=O)n(C)c(=O)n3C)n2C)c1 has solubility kinetic at least equal to 30 µg/mL.
RESULT: Fulfilled

###

Give measured solubility kinetic for each item. Keep answers brief.
# particulars: buffer; pH 7.4; 200.0 µM

Examples with their reported solubility kinetic follow.
{"compound": "CCCN1CCC(NC(=O)C2CCCCC2C(=O)O)CC1 (stereo unspecified)", "value_type": "solubility kinetic", "experimental_result": "> 44.5 µg/mL"}
{"compound": "OC(COc1ccc(Br)cc1)Cn1ccnc1 (stereo unspecified)", "value_type": "solubility kinetic", "experimental_result": "36.3 µg/mL"}
{"compound": "Cc1cc(N2C(=O)Cc3ccccc3C2=O)ccc1C(C)C", "value_type": "solubility kinetic", "experimental_result": "35 µg/mL"}
{"compound": "CC(C)(C)c1ccc(C(=O)NC(=S)NCc2ccco2)cc1", "value_type": "solubility kinetic", "experimental_result": "0.6 µg/mL"}
{"compound": "N#C/C(=C\\N1CCOCC1)C(N)=O", "value_type": "solubility kinetic", "experimental_result": "> 27.2 µg/mL"}

QUERY: Looking for the measured solubility kinetic of CCn1c(C)cc(/C=C2/SC(=O)N(C(C)C(=O)OC)C2=O)c1C (stereo unspecified) , can you help?
RESULT: 22.3 µg/mL

###

# particulars: buffer; pH 7.4; 200.0 µM
value_type: solubility kinetic

{"compound": "CCc1cccc(CC)c1-n1c(SCC(=O)N2CCCc3ccccc32)nc(O)cc1=O", "solubility kinetic": "> 67.4 µg/mL"}
{"compound": "NS(=O)(=O)c1ccc(CNC(=O)c2ccc(NS(=O)(=O)c3cccs3)cc2)cc1", "solubility kinetic": "> 67.7 µg/mL"}
{"compound": "Cc1cc(C)c(S(=O)(=O)NC2CC3CCC2C3)c(C)c1 (stereo unspecified)", "solubility kinetic": "< 0.6 µg/mL"}
{"compound": "O=C(CNC(=O)c1ccc(Br)o1)NC12CC3CC(CC(C3)C1)C2", "solubility kinetic": "50.5 µg/mL"}
{"compound": "Cc1ccc(CNC(=O)CN2CCN(c3ccc(F)cc3)CC2)cc1", "solubility kinetic": "> 51.2 µg/mL"}

Attention now shifts to the item below.
QUERY: Looking for the measured solubility kinetic of O=C(NCc1ccc2c(c1)OCO2)c1ccc(Cl)nc1 , can you help?
RESULT: > 43.6 µg/mL

###

Give measured log10(solubility kinetic) for each item. Keep answers brief.
# particulars: buffer; pH 7.4; 200.0 µM
The figures below represent log10 of solubility kinetic, where solubility kinetic is stated in µg/mL.

Examples with their reported log10(solubility kinetic) follow.
{"molecule": "Cc1onc(-c2ccccc2Cl)c1NC(=O)NCc1cccs1", "log10(solubility kinetic)": 1.63}
{"molecule": "COC(=O)c1cc2c(=O)c3ccccc3oc2nc1C", "log10(solubility kinetic)": 0.73}
{"molecule": "CSc1ccc(/C=C/C(=O)OCC(=O)N2CCCCCC2)cc1", "log10(solubility kinetic)": 0.58}
{"molecule": "O=C(c1ccc([N+](=O)[O-])o1)N1CCN(Cc2ccccc2)CC1", "log10(solubility kinetic)": 0.96}

Attention now shifts to the item below.
QUERY: Looking for the measured log10(solubility kinetic) of O=C1CC2C(=O)NCCN2C(=NC(=O)c2ccc(Cl)cc2)N1 (configuration not stated) , can you help?
RESULT: 1.37

###

# particulars: buffer; pH 7.4; 200.0 µM
value_type: log10 solubility kinetic (log10 of the value in µg/mL)
The figures below represent log10 of solubility kinetic, where solubility kinetic is stated in µg/mL.

{"molecule": "CN1C(C(=O)Nc2ccccn2)=C(O)c2sc(Cl)cc2S1(=O)=O", "log10 solubility kinetic": 1.19}
{"molecule": "CC(=O)Nc1ccc(S(=O)(=O)Nc2ccc(Cl)cn2)cc1", "log10 solubility kinetic": 1.67}
{"molecule": "COc1ccc(-c2cc(=O)oc(-c3cccc(C)c3)n2)cc1", "log10 solubility kinetic": 0.04}
{"molecule": "CCN(c1ccccc1)S(=O)(=O)c1ccc(Cl)nc1", "log10 solubility kinetic": 1.51}
{"molecule": "COc1ccccc1CNc1cc(C)ccn1", "log10 solubility kinetic": 1.46}
{"molecule": "CSc1ccc(S(=O)(=O)NC2CC3CCC2C3)cc1 (centres undefined)", "log10 solubility kinetic": 1.47}

Need log10 solubility kinetic for each of these molecules.
1. COc1ccc(-n2c(C)nc3ccccc3c2=O)c([N+](=O)[O-])c1
2. COc1ccccc1OCc1ccc(C(=O)NC(C)c2ccccc2)o1 (centres undefined)
3. O=C(/C=C/c1ccc(F)cc1)Nc1cccc(S(=O)(=O)N2CCOCC2)c1

RESULT:
[1.60, 1.58, 1.14]

Need log10 solubility kinetic for each of these molecules.
1. Cc1ccc(C)c(C(=O)Nc2nc3ccccc3[nH]2)c1
2. CC(C)OC(=O)Cc1nc2sc(-c3ccccc3)cc2c(=O)[nH]1
3. CCOC(=O)c1sc(NC(=O)Cc2ccccc2OC)nc1C
4. CN(C)c1cccc(N(C)C)c1CNC(=O)NC(=O)c1c(F)cccc1F
5. CN1C(=O)c2ccc(NC(=O)C3CC3)cc2C1=O
6. O=C1N=c2ccccc2=C1c1sc(Nc2cccc(O)c2)nc1O
7. CC(C)(C)c1ccc(-c2noc(CCC(=O)Nc3cccnc3)n2)cc1

RESULT:
1: -0.40; 2: 0.30; 3: 1.17; 4: -0.52; 5: 1.52; 6: -0.15; 7: 0.49

###

# particulars: buffer; pH 7.4; 200.0 µM
value_type: solubility kinetic (µg/mL)
Answers are plain numbers, in µg/mL.

Examples with their reported solubility kinetic follow.
{"molecule": "O=C(c1cc2c(ccc3ccccc32)o1)N1CCCCC1", "solubility kinetic / µg/mL": 2.6}
{"molecule": "CCCNC(=O)c1ccc(COc2ccc(C(C)(C)C)cc2)o1", "solubility kinetic / µg/mL": 10.9}

Need solubility kinetic for each of these molecules.
1. Cc1cc(C)c(S(=O)(=O)Nc2nccs2)c(C)c1
2. CCCCC1(c2ccc(F)cc2)NC(=O)N(CC(=O)Nc2ccc(N3CCOCC3)cc2)C1=O (stereo unspecified)

RESULT:
1: 36.1; 2: 55.7

###

# particulars: buffer; pH 7.4; 200.0 µM
Threshold check on solubility kinetic: at or above 40 µg/mL gives condition met, strictly below gives condition not met.

Worked examples follow.
{"compound": "Cc1c(C(C)(C)C)s/c(=N/S(=O)(=O)c2ccccc2)n1C", "qualitative_label": "condition met"}
{"compound": "Cc1cccn2cc(-c3cccc(NC(=O)c4cccs4)c3)nc12", "qualitative_label": "condition not met"}
{"compound": "COC(=O)c1ccccc1NC(=O)c1cc(C)no1", "qualitative_label": "condition not met"}
{"compound": "Cc1sc2ccccc2[n+]1CC(=O)c1ccccc1.[Br-]", "qualitative_label": "condition met"}
{"compound": "Nc1nc(Nc2ccccc2F)nc(NCCO)c1[N+](=O)[O-]", "qualitative_label": "condition met"}

QUERY: I'd appreciate it if you could say whether CCn1c(SCC(=O)N2CCCC2)nc2ccccc21 has solubility kinetic at least equal to 40 µg/mL.
RESULT: condition met

QUERY: Let us now turn to CCCc1nc2oc3ccccc3c(=O)c2c(=O)n1CCCOC
RESULT: condition met
